Data origin: the nanobody polyreactivity screen of Harvey et al. (2022)

- PROTOCOL_DESCRIPTION: yeast display, Sf9 membrane polyspecificity reagent, FACS + sequencing; frameworks hold sequencing errors
MEASURED_ATTRIBUTE: polyreactivity (PSR sort gate)

Previously resolved entries follow.
{"CHAIN_SEQUENCE": "QVQLVESRGCLVQAGGSLRLSCAASGRIFYYYDMGWYRQAPGKERELVAAITYSDSSTYADSVKRRFTISRDNAKNTVYLQMNSLKPEDTAVYYCAADYVYPGVRLEMDYWGQGTQVTVSS", "REPORTED": "low polyreactivity"}
{"CHAIN_SEQUENCE": "QVQHVESGGGLVQAGGSLRLSCAASGRTFRGNAMGWDRQAPGKERELVAAIRYRGGSTYYADSVKGRFTISRDNAKNTVYLQMNSLKPEDTAVYYCARRYTVHTQHYDYWGQGTQVTVSS", "REPORTED": "high polyreactivity"}
{"CHAIN_SEQUENCE": "QVQLVESGGGLVQAGGSLRLSCAASGFTFVSYAMGWYRQAPGKERELVAAISKRGGSTSYADSVKGRFTISRDNAKNTVYFQMNSLKPEDTAVYYCYNRSYAWSPHVDYWGQGTQVTVSS", "REPORTED": "high polyreactivity"}
{"CHAIN_SEQUENCE": "QVQHVESGGGLVQAGGSLRLSCAASGRTFSANAMGWDRQAPGKEMELVATISSGGRTNYADSVKGRFTISRDNAKNTVYLQMNSLKPEDTAVYYCAKRGPYKRWYGRYDYWGQGTQVTVSS", "REPORTED": "low polyreactivity"}

From here, focus on the item given below.
Record QVQLVESGGCLVQARGSLRLSCASSGSTFGRNAMGWYRQAPGKERELVASISRRGGSTYYADSVKGRFTISRDNAKNTVYLQMNSLKPEDTAVYYCNRVQFSPVYRFREYDYWGQGTQVTVSS , field polyreactivity (PSR sort gate): high polyreactivity

* * *

- PROTOCOL_DESCRIPTION: yeast display, Sf9 membrane polyspecificity reagent, FACS + sequencing; frameworks hold sequencing errors
MEASURED_ATTRIBUTE: polyreactivity (PSR sort gate)

Previously resolved entries follow.
{"CHAIN_SEQUENCE": "HVQLVESGVGLVQAGGSLRLSCEASGFIFIRYAMGWYRQAPGQERELVASISSGGSTYYADSVKGRFTISRDNAKNTVYFQMNSLKPEDTAVFYCAAVFSKGLEGDYWGQGTEVTVSS", "polyreactivity (PSR sort gate)": "high polyreactivity"}
{"CHAIN_SEQUENCE": "QVQLVESGGGLVQAGGSLRLICAASGITFYIYGMGWYRQAPGKERELVAAITSGGSTYYADSVKGRFTISRDNAKNTVYLQMNSLKPEDTAVYYCAAGRYYGKGYYYWGQGTQVTVSS", "polyreactivity (PSR sort gate)": "high polyreactivity"}
{"CHAIN_SEQUENCE": "QVQLVESGGGLVQAGGSLRLSCAASGRTFPAYAMGWYRQAPRKERELVARISYSGGNTYYADSVKGRFTISRDNAKNTVYLQMNSLKPEDTAVYYCAATRSHYPYRSGGDYWGQGTQVTVSS", "polyreactivity (PSR sort gate)": "low polyreactivity"}
{"CHAIN_SEQUENCE": "QVQLVESGGGLVQAGGSLRLSCAASGNTLNYYTMGWYRQAPGKERELVAAISSSGGSTYYADSVKGRFTISRDNAKNTVYLQMNSLKPEDTAVYYCAVLFYNNFGYWGQGTQVTVSS", "polyreactivity (PSR sort gate)": "low polyreactivity"}

From here, focus on the item given below.
Record QVQLVESGGGLVQAGGSLRLSCAASGRIFRWYAMGWYRQAPGKERELVAAISRSGTSTYYADSVKGRFTISRDNAKNTVYLQMNSLKPEDTAVYYCAADAVIFGMDYWGQGTQVTVSS , field polyreactivity (PSR sort gate): low polyreactivity

* * *

- PROTOCOL_DESCRIPTION: yeast display, Sf9 membrane polyspecificity reagent, FACS + sequencing; frameworks hold sequencing errors
MEASURED_ATTRIBUTE: polyreactivity (PSR sort gate)

Previously resolved entries follow.
{"CHAIN_SEQUENCE": "QVQLVESGGGLVQAGGSLRLSCAASGRIFYYYAMGWSRQAPGKERELVAGISYSGGRTYYADSVKGRFTISRDNAKNTVYLQMNSLKPEDTAVYYCAAAYRGANYGYGFDYWGQGTQVTVSS", "polyreactivity (PSR sort gate)": "high polyreactivity"}
{"CHAIN_SEQUENCE": "QVQLVESGGGLVQAGGSLRLSCAASGFTFWRYTMGWYRQAPGKERELVATIRRGTSTNYADSVKGRFTISRDNAKNTVYLQMNSLKPEDTAVYYCAADPWRYYVEYDYWGQGTQVTVSS", "polyreactivity (PSR sort gate)": "high polyreactivity"}
{"CHAIN_SEQUENCE": "QVQLVESGGGLVQAGGSLRLSCAASGRIFGYYAMGWYRQAPGKERELVDSISSNGTSTYYADSVKGRFTISRDNAKNTVYLQMNSLKPEDTAVYYCAASYWYDKAYDYWGHGTQVTVSS", "polyreactivity (PSR sort gate)": "low polyreactivity"}
{"CHAIN_SEQUENCE": "QVQLLESGGGLVQAGGSLRLSCAASGRTFRYNAMGWYRQAPGKERELVAAITGSGGSTYYADSVKGRFTISRDNAKNTVYLQMNSLKPEDTAVYYCARAYSYRLYPYGSWGQGTQVTVSS", "polyreactivity (PSR sort gate)": "high polyreactivity"}
{"CHAIN_SEQUENCE": "QVQLVDSGGGLVQAGGSLCLSCPASGGTSRVNAMGWYRQAPGKETELVARIRSGGSTYYADSVKGRFTISRDNAKNTVYFKMNRLKPEDTAVYHCAAVPRRTGQQQDMDYWGQGTQVTVSS", "polyreactivity (PSR sort gate)": "high polyreactivity"}
{"CHAIN_SEQUENCE": "QVQLVESGGGLVQAGGRLRLSCAASGSTFWYYAMGWSRQAPGKEREFVAAITTGGSSTYYADSVKGRFTISRDNAKNTVYLQMNSLKPEDTAVYYCAARGWRSPYAYYYWGQGTQVTVSS", "polyreactivity (PSR sort gate)": "high polyreactivity"}
{"CHAIN_SEQUENCE": "QVQLVESGGGLVQAGGSLRLSCAASGRTLYRYAMGWYRQAPGKERELVAVISWNAVGTYYADSVKGRFTISRDNAKNTVYLQMNSLKPEDTAVYYCAARKRVASQGYIRYNYWGQGTQVTVSS", "polyreactivity (PSR sort gate)": "high polyreactivity"}
{"CHAIN_SEQUENCE": "QVQLVESGGGLVQAGGSLRLRCAASGFTFTAYAMGWYRQAPGKERELVAAITWRDGITYYADSVKGRFTISRDNAKNTVYLQMNSLKPEDTADYYCAASWSTEYYWGQGTQVTVSS", "polyreactivity (PSR sort gate)": "high polyreactivity"}
{"CHAIN_SEQUENCE": "QVQLVESGGGLVQAGGSLRISCAASGRIFWTYAMGSYRQAPGKERELVAAITWRGGSTSYADSVKGRFTISRDNAKNTVYLQMNSLKPEDTAVYYCAADTYSYLRGTYEYDYWGQGTQVTVSS", "polyreactivity (PSR sort gate)": "high polyreactivity"}
{"CHAIN_SEQUENCE": "QVQLVESGGGLVQAGGSLRLSCAASGSTFTTYAMGWYRQAPGKERELVAAISIRGGRTYYADSVKGRFTISRDNAKNTVYLQMNSLKPEDTAVYYCAAETYYAVSTGYDFDYWGQGTQVTVSS", "polyreactivity (PSR sort gate)": "high polyreactivity"}

From here, focus on the item given below.
Record QVQLVESGGGLVQAGGSLRLSCAASGITFYEYAMGLYRKAPGKERELVAAISDRGGSTYYADSVKGRFTISRDNSKNTVYLQLNSLKPEDTAVYYCAGRNTPAQLDYWGQGTQVTVSS , field polyreactivity (PSR sort gate): low polyreactivity

* * *

- PROTOCOL_DESCRIPTION: yeast display, Sf9 membrane polyspecificity reagent, FACS + sequencing; frameworks hold sequencing errors
MEASURED_ATTRIBUTE: polyreactivity (PSR sort gate)

Previously resolved entries follow.
{"CHAIN_SEQUENCE": "QVQLVESGGGLVQAGGSLRLSCAASGLIFIKNAMGWYRQAPGKERELVAAITRGSSTTYADSVKGRFTISRDNAKNTVYLQMNSLKPEDPAVYYCAAQYGGGYLKPYRREYWGQGTQVTVSS", "polyreactivity (PSR sort gate)": "high polyreactivity"}
{"CHAIN_SEQUENCE": "QVQLVESGGGLVQAGGSLRLSCAASGSIFQRNAMGSYRQAPGKERELVAAITYSGGGTYYADSVKGRFTISRDNAKNTVYLQMNSLKPEDTAVYYCNADGPSTPWVDYGYWGQGTQVTVSS", "polyreactivity (PSR sort gate)": "low polyreactivity"}
{"CHAIN_SEQUENCE": "QVQLVESGGGLVQAGGSLRLSCAASGSIFRYNAMGWYRQAPGKDRELVAAISSGGSTKYADSVKGRFTISRDNAKNTVYLQMNSMKPEDTAVYFCVARRARYDYWGQGTQVTVSS", "polyreactivity (PSR sort gate)": "high polyreactivity"}
{"CHAIN_SEQUENCE": "QVQLVETGGGLVQAGGSLRLSCAASGLTFKYYTKGWYRQAPGKERELVASISWSGGSTYYADSVKGRFTISRDNAKNTVYLQMNSLKPEDTAVYYCARRGYWGPGALGGGGYYWGQGTQVTVSS", "polyreactivity (PSR sort gate)": "high polyreactivity"}

From here, focus on the item given below.
Record QVQLVESGGGLVQAGGSLRLSCAASGSTLVIYAMGWYRQAPGKERELVAAINFSDGSTSYADSVKGRFTISRDNAKNTVYLQMNSLKPEDTAVFYWGQGTQVTVSS , field polyreactivity (PSR sort gate): low polyreactivity
